# Tested on: HaCat
# Method notes: Cytotoxic Profiling of Annotated Libraries Using Quantitative High-Throughput Screening (AID 1296008); also: % is scaled to controls: 0 for no effect and ±100 for the full control effect; nearly all actives have a fitted effect of over 60% in size
# Experimental conditions: Five cell lines viability, CellTiter-Glo ATP luminescence, 48-72 h; stronger effect = lower value
Inconclusive results are not listed.
Observed property: max response (%)

> print(dat)
                         compound.structure  recorded.result
1  COC(=O)[C@@H]1[C@H]2C[C@H]3c4[nH]c5ccccc5c4CCN3C[C@@H]2CC[C@@H]1O            0.769
2  COc1cc(Nc2ncc(F)c(Nc3ccc4c(n3)NC(=O)C(C)(C)O4)n2)cc(OC)c1OC            -23.4
3  CC(C)n1cnc2c(NCCCCCCNC(=O)OC(C)(C)C)nc(NCCO)nc21            -3.35
4    O=C1NC(=O)C(=Cc2ccc(-c3ccc(F)cc3)o2)S1            -17.4
5  CCOC(CN1C(=O)[C@](CC(=O)Nc2ccc(C)cc2)(NC(=O)Nc2ccc(C)cc2)c2ccccc21)OCC            -19.2
6  O=C(Nc1ccccc1-c1cn2c(CN3CCNCC3)csc2n1)c1cnc2ccccc2n1             4.92
7  O=C(NC1CCOCC1)c1ccc(-c2cc(-c3cn[nH]c3-c3ccccn3)ccn2)cc1             2.12
8  C[C@@H](O)[C@H]1C(=O)N2C(C(=O)O)=C(S[C@@H]3CN[C@H](C(=O)N(C)C)C3)[C@H](C)[C@H]12            -2.71
9     O=C(O)CCc1nc(-c2ccccc2)c(-c2ccccc2)o1            -18.5

---

# System: MKL-1
# Method notes: qHTS assay to identify novel small-molecules to repurpose for Merkel cell carcinoma treatment (AID 1296009); also: nearly all actives have a fitted effect of over 60% in size
# Experimental conditions: MCC and control cell lines, CellTiter-Glo viability, 72 h; series mostly up to 46 µM
Inconclusive results are not listed. Activity calls are given as the source filed them. Calls follow the shape of the dose curve; as a rule, active = well fitted inhibition curve with a large enough effect; inconclusive = small, poorly fitted or top-dose-only effect; inactive = flat fitted curve, though single readings scatter.
Classes used: 1 (active), -1 (inactive)

> print(dat)
                                    compound  class
 1  O=C1C[C@@H](c2ccc(O)cc2)Oc2cc(O)cc(O)c21     -1
 2  COc1cccc2c1CCCC2CCCN1CCN(C2CCCCC2)CC1 (configuration not stated)     -1
 3  CN1[C@@H]2CCC[C@@H]1CC(NC(=O)c1nn(C)c3ccccc13)C2 (some centres not stated)     -1
 4  CN(C[C@@H]1COCCO1)S(=O)(=O)Nc1ccc2ccc3ncc(-c4cnn(C)c4)cc3c(=O)c2c1     -1
 5  C=C1C(=O)[C@@]23C(CC[C@@H]1[C@H]2O)[C@@]12CO[C@]3(O)[C@@H](O)[C@@H]1C(C)(C)CC[C@@H]2O (some centres not stated)      1
 6              O=C(NCCN1CCOCC1)c1ccc(Cl)cc1     -1
 7  COc1ccc(-n2c(C)c([N+](=O)[O-])c3ccc(O)cc32)cc1     -1
 8  CC#CCn1c(N2CCC[C@@H](N)C2)nc2c1c(=O)n(Cc1nc(C)c3ccccc3n1)c(=O)n2C     -1
 9  Cn1c(N2CCCCS2(=O)=O)nc(C(=O)NCc2ccc(F)cc2)c(O)c1=O     -1
10  Cc1ccn(-c2ccc(-c3ncco3)cc2)c(=O)c1-c1ccc2nc(N)ncc2c1     -1
11   O=C(O)c1ccccc1C(=O)Nc1ccc(-c2ccccc2)cc1     -1
12  O=C(O)CCC1CCC(c2cc(F)ccc2F)(S(=O)(=O)c2ccc(Cl)cc2)CC1 (configuration not stated)     -1
13                   CC(=O)N[C@@H](CS)C(=O)O     -1
14  CCOC(CN1C(=O)[C@](CC(=O)Nc2ccc(C)cc2)(NC(=O)Nc2ccc(C)cc2)c2ccccc21)OCC     -1
15           CCn1cc(C(=O)O)c(=O)c2ccc(C)nc21     -1
16            O=C1NCC2(CCN(CCc3ccccc3)CC2)O1     -1
17  CC(C)(C)Cn1c(N)nc2ccc(-c3[nH]c(C(C)(C)C)nc3-c3ccc(F)cc3)nc21     -1
18  CC(=O)c1ccc(S(=O)(=O)NC(=O)NC2CCCCC2)cc1     -1
19          COc1cccc(-c2cc(=O)c3ccccc3o2)c1N     -1
20  NC(CO)(CO)CCc1ccc(Sc2cccc(OCc3ccccc3)c2)cc1Cl      1
21         O=C(NCc1ccccc1)c1csc(Nc2ccncn2)n1      1
22  Cc1ccccc1C(C(=O)NC1CCCCC1)N(C(=O)Cn1ccnc1C)c1cccc(F)c1 (configuration not stated)     -1

---

# Method notes: Quantitative High-Throughput drug screen in 47 multiple myeloma cell lines against the NCATS MIPE library collection: L363_DSMZ cell viability assay (AID 1918984); also: nearly all actives have a fitted effect of over 40% in size
# Experimental conditions: L363 myeloma viability, CellTiter-Glo ATP luminescence, 48 h; series mostly up to 45.8 µM
Inconclusive results are not listed. Activity calls are given as the source filed them. Calls come from the whole dose curve; as a rule, active = well fitted cell-killing curve with a large enough effect; inconclusive = small, poorly fitted or top-dose-only effect, or effect the other way; inactive = no such curve, though single readings can be large or run the other way.
Classes used: 1 = active, 0 = inactive

Compound	Class
COc1ccc(-c2oc3c(CC=C(C)C)c(OC4O[C@H](CO)[C@@H](O)[C@H](O)[C@@H]4O)cc(O)c3c(=O)c2OC2O[C@@H](C)[C@H](O)[C@@H](O)[C@@H]2O)cc1 (some centres not stated)	1
CN(C)Cc1cccc(N=C(c2ccccc2)c2c(O)[nH]c3cc(C(=O)N(C)C)ccc23)c1	1
O=C(NCc1ccncc1)C12C[C@H]3C[C@@H](C1)CC(c1ccc(Cl)cc1)(C3)C2	1
COc1cc2ncnc(-n3nc(-c4ccccn4)nc3N)c2cc1OC	1
CC[C@]1(O)C[C@@H]2CN(CCc3c([nH]c4ccccc34)[C@@](C(=O)OC)(c3cc4c(cc3OC)N(C=O)[C@@H]3C45CCN4CC=C[C@](CC)([C@H]45)[C@@H](OC(C)=O)[C@]3(O)C(=O)OC)C2)C1 (some centres not stated)	0
COCCCCC(=NOCCN)c1ccc(C(F)(F)F)cc1	0
CC(=O)N(C)C1(c2ccccc2)CCN(CCC[C@]2(c3ccc(Cl)c(Cl)c3)CCCN(C(=O)c3ccccc3)C2)CC1	1

---

# Method notes: qHTS for identification of novel therapeutic agents for treatment of microphthalmiaassociated transcription factor (MiT) renal cell carcinoma (RCC) (AID 1963991);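 also: curves scaled with 100% = DMSO viability and 0% = empty wells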
# Experimental conditions: TFE3-RCC viability, CellTiter-Glo, 48 h; measured here: UOK124 Z-AUC; stronger effect = lower value
Results filed as inconclusive are left out.
Reported z-score values follow for various molecules
Observed property: z-score

> print(dat)
                                    molecule  recorded.result
 1  Nc1ncnc2c1ncn2[C@@H]1O[C@@H](CO)[C@H](O)[C@H]1O            0.529
 2  CC(C)(C)OC(=O)N[C@H]1CCCCCC=C[C@@H]2C[C@@]2(C(=O)NS(=O)(=O)C2CC2)NC(=O)[C@@H]2C[C@@H](OC(=O)N3Cc4cccc(F)c4C3)CN2C1=O            0.826
 3  C=C1C(=O)OC(CCCCCCCC)C1C(=O)O (stereo not given)            0.792
 4         O=c1c(-c2ccc(O)cc2)coc2cc(O)ccc12            0.542
 5  CC(C)n1nc(-c2ccc3oc(N)nc3c2)c2c(N)ncnc21            -2.58
 6         O=c1cc(-c2ccccc2)oc2cc(O)cc(O)c12            0.638
 7  COc1ncc(-c2ccc3nccc(-c4ccnnc4)c3c2)cc1NS(=O)(=O)c1ccc(F)cc1F            -1.24
 8  CCOC(=O)O[C@]1(C(=O)OCCl)CC[C@@H]2[C@H]3CCC4=CC(=O)C=C[C@]4(C)[C@@H]3[C@@H](O)C[C@@]21C            0.837
 9  Cc1ccccc1C(C(=O)NC1CCCCC1)N(C(=O)Cn1ccnc1C)c1cccc(F)c1 (stereo not given)            0.139
10  C[C@@H]1CCN(C(=O)CC#N)C[C@H]1N(C)c1ncnc2[nH]ccc12             0.39

---

# Method notes: Cell Proliferation Assay against the TMD8 Cell Line (Caspase readout at 16 hrs) (AID 651712);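 as to caspase activation: 0% = DMSO and 100% = 9.2 µM bortezomib caspase activation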
# Experimental conditions: TMD8 lymphoma cells, caspase activation luminescence; series mostly up to 46.1 µM
Results filed as inconclusive are left out. Calls of active or inactive are those of the source. Calls follow the shape of the dose curve; as a rule, active = well fitted activation curve with a large enough effect; inconclusive = small, poorly fitted or top-dose-only effect; inactive = flat fitted curve, though single readings scatter.
Classes used: active, inactive

Compound structure	Class
CO[C@H]1C[C@@H]2CC[C@@H](C)[C@@](O)(O2)C(=O)C(=O)N2CCCC[C@@H]2C(=O)O[C@H]([C@H](C)C[C@@H]2CC[C@H](OCCO)[C@H](OC)C2)CC(=O)[C@H](C)C=C(C)[C@@H](O)[C@@H](OC)C(=O)[C@H](C)C[C@H](C)C=CC=CC=C1C	inactive
CC(C)[C@H](CO)Nc1nc(Nc2ccc(C(=O)O)c(Cl)c2)c2ncn(C(C)C)c2n1	inactive
CC(C)(C)COc1ccc(-n2cc(C(=O)O)cn2)cc1C#N	inactive
CCOc1ccc(Nc2nc(-c3c(C)nc4ccccn34)cs2)cc1	active
O=C(CCCCCCC(=O)Nc1ccccc1)NO	active
